Tested on: KM12 colon
Assay: NCI-60 one-dose screen, 48 h
Details: 10 µM unless noted
This is part of a sample that, as a whole, favours compounds with a hit. Of some 83,000 tested, about 20% had one in any assay. Active and inactive are the calls of the source. The calls were made as follows: active = growth percent below 10; inactive = the rest.
Could you please pick one outcome from this set? label 1 for active, label 0 for inactive

(Q) What is the recorded call for this compound in the test? C[C@]12CC[C@@H]3c4ccc(O)cc4CC[C@H]3[C@@H]1C[C@H](O)C2
(A) label 0

(Q) Outcome logged for CC(=O)c1cnc(-c2ccccc2)nc1CBr in this assay:
(A) label 0

(Q) Per the records of this test, what outcome belongs to O=C(Nc1cc(Nc2ncccc2-c2ncnc3nc[nH]c23)ccc1F)c1cc(C(F)(F)F)cc(C(F)(F)F)c1 ?
(A) label 1

(Q) // param item: CCCS(=O)(=O)Nc1ccc(F)c(C(=O)c2c[nH]c3ncc(-c4ccc(OCCCC5CCCCN5)nc4)cc23)c1F (stereo not given) ; yields the recorded call
(A) label 0

(Q) Recorded test outcome, item C=C1C(=O)O[C@H]2[C@H]1CC/C(COC(=O)c1cc3ccccc3o1)=C\CC[C@@]1(C)O[C@@H]21
(A) label 0

====

Test system: TK-10 renal
Test: NCI-60 one-dose screen, 48 h (100 = growth as untreated, 0 = no growth, -100 = all killed)
Conditions: 10 µM unless noted
About 83,000 compounds went through this panel and 20% of them were active in at least one assay; those are over-represented in the sample as a whole.
Measurement type: growth (%)
Please give a number only; it is taken to be in %.

(Q) Fill in growth for record Nc1ccc(C2=NN(C(=O)c3cc(-c4ccc(Cl)cc4)nc4ccccc34)C(c3ccccc3)C2)cc1 (centres undefined)
(A) 58.5

(Q) Specify reported growth for the compound shown: C=C1C(=O)O[C@H]2[C@H]1CC/C(COC(=O)NCC(=O)Nc1ccc(OC)c(C(N)=O)c1O)=C\CC[C@@]1(C)O[C@@H]21
(A) 47.2

(Q) Identify the reported growth for the following entry. Cc1cc(O)cc(O)c1N=NC1=NCCS1
(A) 135

(Q) Tell me growth reported for COc1cc(/C=C/C(=O)c2ccc(NC(=O)CSc3nnc(-c4cc(OC)c(OC)c(OC)c4)n3-c3ccccc3)cc2)cc(OC)c1OC
(A) 45.1

====

System: SF-268 CNS
Test: NCI-60 one-dose screen, 48 h
Details: 10 µM unless noted
Compounds without any hit were thinned out: in the full panel of roughly 83,000, 20% have a hit. Activity calls are given as the source filed them. The calls were made as follows: active = growth percent below 10; inactive = the rest.
Choose the fitting class; nothing outside active, inactive is accepted.

(Q) I would be grateful if you could indicate the recorded call for Cn1c2ccccc2c2c(OC(=O)c3ccccc3)c3c(nc21)-c1ccccc1C3 .
(A) inactive

(Q) // return assay outcome for CC1CCCN(CCCCCOc2ccc3oc4ccccc4c(=O)c3c2)C1 (stereo unspecified)
(A) inactive

(Q) Write down the call the test reported for this compound. Item: COc1cc2c(cc1OC)C(Sc1ccc(Cl)cc1)c1c(nc(N)c(C#N)c1N)O2 (stereo unspecified)
(A) inactive

(Q) For CCOC(=O)/C(=C/c1c(-c2ccccc2)[nH]c2ccccc12)C(=O)c1ccc(Cl)cc1 , which call appears in the assay record?
(A) inactive

(Q) Per the assay record, what outcome was assigned to COc1ccc(Sc2[nH]c(C(C)=O)c3ccccc23)cc1 ?
(A) inactive

(Q) // outcome(item) with item = NC(=N\N=C\c1ccccc1O)/C(N)=N/N=C/c1ccccc1O
(A) inactive

(Q) Given O=C(CCCCCCCCC(=O)Nc1cccc(C2=NCCN2)c1)Nc1cccc(C2=NCCN2)c1 , state the outcome it received in this test.
(A) inactive

(Q) Record request — test call for CN(C)CSc1nc2ccccc2s1
(A) inactive

(Q) Test call for this compound, please: CN1C(=O)c2cc(Cl)nc3c(NC(=O)c4cccc(Cl)c4)c(Cl)c(NC(=O)c4cccc(Cl)c4)c1c23
(A) active

(Q) In this assay, the call recorded for O=C1NCc2ccc3c(-c4cccc(Cl)c4)c[nH]c3c21 was what?
(A) inactive

(Q) What was the test verdict on Cc1nc(C)c(C)nc1C ?
(A) inactive
